molecular target: Renin (Homo sapiens); assay: Inhibition of human recombinant renin using QXL520-Lys-His-Pro-Phe-His-Leu-Val-Ile-His-Lys-(5-FAM) as substrate pretreated for 10 mins measured after 1 hr by fluorescence analysis in presence of human plasma
Sequence (P00797 whole entry): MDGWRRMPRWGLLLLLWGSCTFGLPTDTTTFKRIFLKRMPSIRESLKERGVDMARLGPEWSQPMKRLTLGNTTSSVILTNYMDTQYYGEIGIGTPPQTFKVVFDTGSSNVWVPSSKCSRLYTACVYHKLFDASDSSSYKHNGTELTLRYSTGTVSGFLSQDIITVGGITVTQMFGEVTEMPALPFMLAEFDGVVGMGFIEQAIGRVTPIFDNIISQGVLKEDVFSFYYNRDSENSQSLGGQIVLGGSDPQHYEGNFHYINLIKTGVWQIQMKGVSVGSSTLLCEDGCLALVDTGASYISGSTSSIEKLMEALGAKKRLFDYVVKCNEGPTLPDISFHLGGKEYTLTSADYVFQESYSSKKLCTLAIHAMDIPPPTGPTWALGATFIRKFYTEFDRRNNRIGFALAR
PARAMETER MEASURED: IC50 (nM)

Tell me the measured IC50 of "CC(=O)NCCc1ccccc1-c1onc([C@H]2CNCC[C@]2(C(N)=O)c2ccc(F)c(F)c2)c1Br" , please.
0.6

Thanks! And "CC(=O)NCCc1cc(F)ccc1-c1onc([C@H]2CNCC[C@]2(O)c2ccc(F)c(F)c2)c1Br" ?
0.7

(A) COC[C@H](C)COCc1ccc([C@@]2(O)CCNC[C@@H]2c2noc(-c3ccccc3CCNC(C)=O)c2Br)cc1
(B) CC(=O)NCCc1ccccc1-c1cc([C@H]2CNCC[C@]2(O)c2ccc(F)c(F)c2)no1
Lab notebook, comparison: A versus B , higher IC50 goes to which? Mark your answer with the label of the selected entry.
B
(B: 331 nM, A: 0.67 nM)
